# RUN_DESCRIPTION: qHTS of pediatric cancer cell lines to identify multiple opportunities for drug repurposing: Primary screen for BT-12 cells (AID 1347101); note: nearly all actives have a fitted effect of over 25% in size
# CONDITION_SUMMARY: BT-12 viability, CellTiter-Glo luminescence, 48 h; series mostly up to 57.3 µM
Records with an inconclusive call do not appear. Active and inactive are the calls of the source. Calls come from the whole dose curve; as a rule, active = well fitted cell-killing curve with a large enough effect; inconclusive = small, poorly fitted or top-dose-only effect; inactive = flat fitted curve, though single readings scatter.
Choose the fitting class; nothing outside Y for active, N for inactive is accepted.

Q) Look up the recorded call for CCCCC(CC)CN=C(N)NC(N)=NCCCCCCN=C(N)NC(N)=NCC(CC)CCCC (stereo not given) in this test.
A) Y

Q) Quick one: "CN(C)C(=S)SC(=S)N(C)C"
A) Y

Q) Quick one: "CCCCS(=O)(=O)N[C@@H](Cc1ccc(OCCCCC2CCNCC2)cc1)C(=O)O"
A) N

Q) Quick one: "CCCCCCCCCCCCCCCC[N+](C)(C)CC"
A) Y

Q) Quick one: "Nc1nc2ncc(CNc3ccc(C(=O)N[C@@H](CCC(=O)O)C(=O)O)cc3)nc2c(=O)[nH]1"
A) N

Q) Quick one: "COc1cc(C(=S)N2CCOCC2)cc(OC)c1OC"
A) N

Q) Quick one: "Cc1cc(O)c(C(C)C)cc1Cl"
A) N

Q) Quick one: "Cc1ccnc(NS(=O)(=O)c2ccc(N)cc2)n1"
A) N

Q) Quick one: "CC(=O)OCC(=O)[C@@]1(OC(C)=O)[C@@H](C)C[C@H]2[C@@H]3C[C@H](F)C4=CC(=O)C=C[C@]4(C)[C@@]3(F)[C@@H](O)C[C@@]21C"
A) N

Q) Quick one: "CC(O)(P(=O)(O)O)P(=O)(O)O"
A) N

Q) Quick one: "C[C@]12CC[C@@H]3c4ccc(O)cc4CC[C@H]3[C@@H]1C[C@@H](O)[C@@H]2O"
A) N

Q) Quick one: CCCCN1CCCC1C(=O)Nc1c(C)cc(C)cc1C (stereo not given)
A) N

Q) Quick one: "COc1cc(OC)cc(OC)c1"
A) N

Q) Quick one: "CCN(CC)C(=O)N1CCN(C)CC1"
A) N

Q) Quick one: "Cc1cccn2c(=O)c(-c3nnn[nH]3)cnc12"
A) N

---

# Tested on: CP192
# RUN_DESCRIPTION: qHTS profiling for inhibitors of Plasmodium falciparum proliferation (AID 504749); note: nearly all actives have a fitted effect of over 60% in size
# CONDITION_SUMMARY: P. falciparum in erythrocytes, SYBR Green DNA, 72 h; series mostly up to 28.7 µM
Inconclusive results are not listed. Active and inactive are the calls of the source. Calls come from the whole dose curve; as a rule, active = well fitted inhibition curve with a large enough effect; inconclusive = small, poorly fitted or top-dose-only effect; inactive = flat fitted curve, though single readings scatter.
Choose the fitting class; nothing outside active, inactive is accepted.

CCn1cc(C(=O)O)c(=O)c2cnc(N3CCCC3)nc21
inactive
CN1CCN(C(c2ccccc2)c2ccccc2)CC1
inactive
CC/C(=C(/CC)c1ccc(O)cc1)c1ccc(O)cc1
inactive

Q) Look up the recorded call for "CC(C)(C(=O)c1cccnc1)c1cccnc1" in this test.
A) inactive

Q) Quick one: "C[C@@H]1C(=O)NC2=Nc3cccc(Cl)c3CN21"
A) inactive

Q) Quick one: "C[C@@H]1CN(CCCn2c3ccccc3c3ccccc32)C[C@H](C)N1"
A) inactive

Q) Quick one: "Cc1cc(N)c2cc(NC(=O)Nc3ccc4nc(C)cc(N)c4c3)ccc2n1"
A) active

---

# RUN_DESCRIPTION: qHTS of pediatric cancer cell lines to identify multiple opportunities for drug repurposing: Primary screen for NB-EBc1 cells (AID 1347095)
# CONDITION_SUMMARY: NB-EBc1 neuroblastoma viability, CellTiter-Glo luminescence, 48 h; series mostly up to 46 µM
Results filed as inconclusive are left out. Activity calls are given as the source filed them. The call rests on the fitted dose curve; in most records, active means well fitted cell-killing curve with a large enough effect; inconclusive means small, poorly fitted or top-dose-only effect; inactive means no such curve, though single readings can be large or run the other way.
Choose the fitting class; nothing outside active, inactive is accepted.

Cc1ccnc(NS(=O)(=O)c2ccc(N)cc2)n1
inactive
COc1c2occc2c(OC)c2c(=O)cc(C)oc12
inactive
CC(=O)CC(c1ccc([N+](=O)[O-])cc1)c1c(O)c2ccccc2oc1=O (stereo unspecified)
inactive
CCOC(=O)c1cccc(N)c1
inactive
CC(C)=CCC1C(=O)N(c2ccccc2)N(c2ccccc2)C1=O
active

Q) Look up the recorded call for CN1CCCC(CC2c3ccccc3Sc3ccccc32)C1 (stereo unspecified) in this test.
A) inactive

Q) Quick one: "CCCCCCC[N+](CC)(CC)CCCCc1ccc(Cl)cc1"
A) active

Q) Quick one: "O=C(O)CCCCC(=O)O"
A) inactive

---

# MEASURED_ON: Cytochrome P450 2C9 (Homo sapiens)
# RUN_DESCRIPTION: Cytochrome P450 family 2 subfamily C member 9 (CYP2C9) small molecule antagonists: luciferase biochemical (cell-free) qHTS assay (AID 1645842); note: nearly all actives have a fitted effect of over 55% in size
# CONDITION_SUMMARY: P450-Glo CYP2C9 enzyme assay, luciferin luminescence; series mostly up to 57.4 µM
Inconclusive results are not listed. The source made the active and inactive calls. Calls come from the whole dose curve; as a rule, active = well fitted inhibition curve with a large enough effect in the repeat runs; inconclusive = weak or mixed curves; inactive = no such curve, though single readings can be large or run the other way.
Choose the fitting class; nothing outside active, inactive is accepted.

Below, 3 compounds whose answers are already recorded.
O=c1ccc2ccccc2o1
inactive
C[C@]12C=CC(=O)C=C1CC[C@@H]1[C@@H]2[C@@H](O)C[C@@]2(C)[C@H]1CC[C@]2(O)C(=O)CO
inactive
Cc1onc(-c2c(Cl)cccc2Cl)c1C(=O)N[C@@H]1C(=O)N2[C@@H]1SC(C)(C)[C@@H]2C(=O)O
active

Q) Look up the recorded call for "CC[N+](CC)(CCNC(=O)C(=O)NCC[N+](CC)(CC)Cc1ccccc1Cl)Cc1ccccc1Cl" in this test.
A) inactive

Q) Quick one: "O=C(OCCOCCO)c1ccccc1Nc1cccc(C(F)(F)F)c1"
A) active

---

# Test system: CP252
# RUN_DESCRIPTION: qHTS profiling for inhibitors of Plasmodium falciparum proliferation (AID 504749); note: nearly all actives have a fitted effect of over 60% in size
# CONDITION_SUMMARY: P. falciparum in erythrocytes, SYBR Green DNA, 72 h; series mostly up to 28.7 µM
Records with an inconclusive call do not appear. Calls of active or inactive are those of the source. Calls follow the shape of the dose curve; as a rule, active = well fitted inhibition curve with a large enough effect; inconclusive = small, poorly fitted or top-dose-only effect; inactive = flat fitted curve, though single readings scatter.
Choose the fitting class; nothing outside True (active), False (inactive) is accepted.

Q) Look up the recorded call for "CN=C(NC#N)NCCSCc1csc(N=C(N)N)n1" in this test.
A) False

Q) Quick one: "COc1cc(NS(C)(=O)=O)ccc1Nc1c2ccccc2nc2ccccc12"
A) True

Q) Quick one: "C[C@@H]1C(=O)NC2=Nc3cccc(Cl)c3CN21"
A) False

Q) Quick one: "COc1cccc2c1C(=O)c1c(O)c3c(c(O)c1C2=O)C[C@@](O)(C(C)=O)C[C@@H]3O[C@H]1C[C@H](N)[C@H](O)[C@H](C)O1"
A) True

---

# RUN_DESCRIPTION: qHTS of pediatric cancer cell lines to identify multiple opportunities for drug repurposing: Primary screen for NB-EBc1 cells (AID 1347095)
# CONDITION_SUMMARY: NB-EBc1 neuroblastoma viability, CellTiter-Glo luminescence, 48 h; series mostly up to 46 µM
Results filed as inconclusive are left out. The source made the active and inactive calls. Calls come from the whole dose curve; as a rule, active = well fitted cell-killing curve with a large enough effect; inconclusive = small, poorly fitted or top-dose-only effect; inactive = no such curve, though single readings can be large or run the other way.
Choose the fitting class; nothing outside active, inactive is accepted.

Q) Look up the recorded call for "N[C@H](Cc1c[nH]c2ccccc12)C(=O)O" in this test.
A) inactive

Q) Quick one: CO/N=C1\CN(c2nc3c(cc2F)c(=O)c(C(=O)O)cn3C2CC2)CC1CN (stereo not drawn)
A) inactive

Q) Quick one: "COc1c(C)c2c(c(O)c1C/C=C(\C)CCC(=O)O)C(=O)OC2"
A) active

Q) Quick one: "CCN1CCC[C@H]1CNC(=O)c1c(OC)ccc(Br)c1OC"
A) inactive

Q) Quick one: "O=C(CCCN1CCC(O)(c2ccc(Br)cc2)CC1)c1ccc(F)cc1"
A) inactive

---

# MEASURED_ON: Cytochrome P450 2C9 (Homo sapiens) (UniProt P11712)
# Sequence (P11712 whole entry, looked up): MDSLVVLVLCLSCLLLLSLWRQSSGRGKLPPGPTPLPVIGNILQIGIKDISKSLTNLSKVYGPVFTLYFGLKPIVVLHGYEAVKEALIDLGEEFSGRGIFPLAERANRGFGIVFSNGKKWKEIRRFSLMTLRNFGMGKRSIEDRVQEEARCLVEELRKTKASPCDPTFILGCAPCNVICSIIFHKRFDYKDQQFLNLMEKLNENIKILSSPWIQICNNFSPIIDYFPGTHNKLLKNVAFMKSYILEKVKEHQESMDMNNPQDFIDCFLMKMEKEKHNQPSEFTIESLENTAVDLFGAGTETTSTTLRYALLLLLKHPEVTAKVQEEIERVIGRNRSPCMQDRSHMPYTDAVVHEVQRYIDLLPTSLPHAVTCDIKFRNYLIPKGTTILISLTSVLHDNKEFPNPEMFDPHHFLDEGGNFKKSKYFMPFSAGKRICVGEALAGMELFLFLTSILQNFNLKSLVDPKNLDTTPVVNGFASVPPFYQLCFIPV
# RUN_DESCRIPTION: Cytochrome P450 family 2 subfamily C member 9 (CYP2C9) small molecule antagonists: luciferase biochemical (cell-free) qHTS assay (AID 1645842); note: nearly all actives have a fitted effect of over 55% in size
# CONDITION_SUMMARY: P450-Glo CYP2C9 enzyme assay, luciferin luminescence; series mostly up to 57.4 µM
Results filed as inconclusive are left out. Activity calls are given as the source filed them. Calls follow the shape of the dose curve; as a rule, active = well fitted inhibition curve with a large enough effect in the repeat runs; inconclusive = weak or mixed curves; inactive = no such curve, though single readings can be large or run the other way.
Choose the fitting class; nothing outside active, inactive is accepted.

CC1(C)OC[C@@H](COC(=O)CCc2ccc(OC[C@@H](O)CNCCNC(=O)N3CCOCC3)cc2)O1
inactive

Q) Look up the recorded call for "COc1cccc2c1C(=O)c1c(O)c3c(c(O)c1C2=O)C[C@@](O)(C(=O)CO)C[C@@H]3O[C@H]1C[C@H](N)[C@H](O)[C@H](C)O1" in this test.
A) inactive

Q) Quick one: "C[C@H]1C[C@H]2[C@@H]3CCC4=CC(=O)C=C[C@]4(C)[C@@]3(Cl)[C@@H](O)C[C@]2(C)[C@@]1(O)C(=O)CO"
A) active

Q) Quick one: "CCN1CCN(c2cc3c(cc2F)c(=O)c(C(=O)O)cn3C2CC2)CC1"
A) inactive

Q) Quick one: CO/N=C1\CN(c2nc3c(cc2F)c(=O)c(C(=O)O)cn3C2CC2)CC1CN (centres undefined)
A) inactive

Q) Quick one: "CCCCCCc1ccc(O)cc1O"
A) active

Q) Quick one: "C[C@]12CCC(=O)C=C1[C@@H]1C[C@@H]1[C@H]1[C@@H]3[C@@H]4C[C@@H]4[C@@]4(CCC(=O)O4)[C@@]3(C)CC[C@@H]12"
A) inactive

Q) Quick one: "C=C(CC)C(=O)c1ccc(OCC(=O)O)c(Cl)c1Cl"
A) active

Q) Quick one: "CC(=O)OCC(=O)[C@@]1(O)CC[C@H]2[C@@H]3CCC4=CC(=O)C=C[C@]4(C)[C@H]3[C@@H](O)C[C@@]21C"
A) inactive
